# test-details: Metabolic stability in dog plasma assessed as half life at pH 7.4 measured upto 60 mins by HPLC-MS analysis
# Format: ADME, cell-free, Canis lupus familiaris
measured-endpoint: half-life (min)
Give bare numbers, in min.

(Q) I have this compound here, CC(=O)OC[C@H]1O[C@@H](OC2=C(C)OC(=C(C)C)C2=O)[C@H](OC(C)=O)[C@@H](OC(C)=O)[C@@H]1OC(C)=O , and I need its recorded half-life.
(A) 32.5

* * *

# test-details: Cmax in male C57 mouse at 5 mg/kg, po measured upto 24 hrs
# Format: ADME, organism-based
# measurement-conditions: in vivo
What Cmax was measured for each of the following?
Numbers only, in ng/mL.

For each of the items listed, what is its Cmax?
1. CC(C)=C1OC(C)=C(O[C@@H]2O[C@H](CO)[C@@H](O)[C@H](O)[C@H]2O)C1=O
2. CC(=O)OC[C@H]1O[C@@H](OC2=C(C)OC(=C(C)C)C2=O)[C@H](OC(C)=O)[C@@H](OC(C)=O)[C@@H]1OC(C)=O

(A)
[284, 48.4]

* * *

# test-details: Half life in male C57 mouse at 5 mg/kg, po measured upto 24 hrs
# Format: ADME, organism-based
# measurement-conditions: male, C57, mouse, in vivo
measured-endpoint: half-life (h)
One number for each entry, in h.

(Q) Entry CC(=O)OC[C@H]1O[C@@H](OC2=C(C)OC(=C(C)C)C2=O)[C@H](OC(C)=O)[C@@H](OC(C)=O)[C@@H]1OC(C)=O has what half-life?
(A) 1.91

* * *

Would you mind telling me the reported AUC(0-inf) of each entry?
# test-details: AUC infinity in male C57 mouse at 5 mg/kg, po measured upto 24 hrs
# Assay type: ADME, organism-based
# measurement-conditions: in vivo
Numbers only, in ng·h/mL.

(Q) GET /values?readout=AUC(0-inf)&item= CC(C)=C1OC(C)=C(O[C@@H]2O[C@H](CO)[C@@H](O)[C@H](O)[C@H]2O)C1=O
(A) 180

Next:
(Q) Need AUC(0-inf) of CC(=O)OC[C@H]1O[C@@H](OC2=C(C)OC(=C(C)C)C2=O)[C@H](OC(C)=O)[C@@H](OC(C)=O)[C@@H]1OC(C)=O , thanks.
(A) 93.6

* * *

# test-details: Tmax in male C57 mouse at 5 mg/kg, po measured upto 24 hrs
# Assay type: ADME, organism-based
# measurement-conditions: in vivo
measured-endpoint: Tmax (min)
Answers are plain numbers, in min.

(Q) Consider the molecule shown here: CC(=O)OC[C@H]1O[C@@H](OC2=C(C)OC(=C(C)C)C2=O)[C@H](OC(C)=O)[C@@H](OC(C)=O)[C@@H]1OC(C)=O What is its recorded Tmax?
(A) 19.8

Let us move to another entry and its Tmax.
(Q) So what does the record say about Tmax for CC(C)=C1OC(C)=C(O[C@@H]2O[C@H](CO)[C@@H](O)[C@H](O)[C@H]2O)C1=O ?
(A) 15

* * *

Record form. Attribute: CC50. Fill in for each entry.
# test-details: Cytotoxicity against mouse Splenocyte by MTT assay
# Assay type: toxicity, cell-based
# measurement-conditions: splenocytes
Numbers only, in µM.

(Q) Please give the measured CC50 for this molecule: CC(=O)OC[C@H]1O[C@@H](OC2=C(C)OC(=C3CCCC3)C2=O)[C@H](OC(C)=O)[C@@H](OC(C)=O)[C@@H]1OC(C)=O
(A) 40

(Q) What value of CC50 has been reported for the following molecule? CC1=C(O)C(=O)C(=C2CCOCC2)O1
(A) 232

(Q) What does the record list as CC50 for CC(=O)OC[C@H]1O[C@@H](OC2=C(C)OC(=C3CCN(C(C)=O)CC3)C2=O)[C@H](OC(C)=O)[C@@H](OC(C)=O)[C@@H]1OC(C)=O ?
(A) 38.7

(Q) Name the reported CC50 value associated with the molecule CC(=O)OC[C@H]1O[C@@H](OC2=C(C)OC(=C(C)C)C2=O)[C@H](OC(C)=O)[C@@H](OC(C)=O)[C@H]1OC(C)=O
(A) 183

(Q) If you can, please state the reported CC50 value of CC(=O)OC[C@H]1O[C@@H](OC2=C(C)OC(=C(C)C)C2=O)[C@H](OC(C)=O)[C@@H](OC(C)=O)[C@@H]1OC(C)=O .
(A) 60

I have 2 molecules here; please give me CC50 for each one.
1. CC1=C(O)C(=O)C(=C2CCNCC2)O1
2. CC(=O)OC[C@H]1O[C@@H](OC2=C(C)OC(=C3CCCCC3)C2=O)[C@H](OC(C)=O)[C@@H](OC(C)=O)[C@@H]1OC(C)=O

(A)
[205, 35.6]

Parameters: items (list). Returns: CC50 for each item.
1. COC(=O)[C@H]1O[C@@H](OC2=C(C)OC(=C(C)C)C2=O)[C@H](OC(C)=O)[C@@H](OC(C)=O)[C@@H]1OC(C)=O
2. CC(=O)OC[C@H]1O[C@@H](OC2=C(C)OC(=C3CCNCC3)C2=O)[C@H](OC(C)=O)[C@@H](OC(C)=O)[C@@H]1OC(C)=O
3. CC(C)=C1OC(C)=C(O)C1=O
4. CC(=O)OC[C@H]1O[C@@H](OC2=C(C)OC(=C3CCOCC3)C2=O)[C@H](OC(C)=O)[C@@H](OC(C)=O)[C@@H]1OC(C)=O
5. CC(C)=C1OC(C)=C(O[C@@H]2O[C@H](CO)[C@@H](O)[C@H](O)[C@H]2O)C1=O
6. CC1=C(O)C(=O)C(=C2CCCC2)O1
7. CCOC(=O)OC[C@H]1O[C@@H](OC2=C(C)OC(=C(C)C)C2=O)[C@H](O)[C@@H](O)[C@@H]1O

(A)
212
15.5
110
71.9
149
248
182

* * *

# System: Mus musculus
# test-details: Antiinflammatory activity in DSS-induced male C57BL/6 mouse model of inflammatory bowel disease assessed as restoration of colon length at 40 mg/kg/day, po via gavage measured after 14 days relative to control
# Type: functional
# measurement-conditions: time 14 day
I'd appreciate it if you could supply Activity values for the items below.
Give bare numbers, in %.

Past entries and their recorded results:
(Q) Which value of Activity has been reported for CC(C)=C1OC(C)=C(O[C@@H]2O[C@H](COC(=O)C(C)(C)C)[C@@H](OC(=O)C(C)(C)C)[C@H](OC(=O)C(C)(C)C)[C@H]2OC(=O)C(C)(C)C)C1=O in the records?
(A) 3.2

(Q) GET /values?readout=Activity&item= O=C(O)c1cc(/N=N/c2ccc(S(=O)(=O)Nc3ccccn3)cc2)ccc1O [SULFASALAZINE]
(A) 9.5

(Q) Tell me the measured Activity of CC(=O)OC[C@H]1O[C@@H](OC2=C(C)OC(=C(C)C)C2=O)[C@H](OC(C)=O)[C@@H](OC(C)=O)[C@@H]1OC(C)=O , please.
(A) 28.6

(Q) Item COC(=O)[C@H]1O[C@@H](OC2=C(C)OC(=C(C)C)C2=O)[C@H](OC(C)=O)[C@@H](OC(C)=O)[C@@H]1OC(C)=O has what recorded Activity?
(A) 9.5

Continuing:
(Q) Query (compound): CC(=O)OC[C@H]1O[C@@H](OC2=C(C)OC(=C(C)C)C2=O)[C@H](OC(C)=O)[C@@H](OC(C)=O)[C@H]1OC(C)=O ; field requested: Activity
(A) 25.4

* * *

# test-details: AUC last in male C57 mouse at 1 mg/kg, iv measured upto 24 hrs
# Assay type: ADME, organism-based
# measurement-conditions: in vivo
measured-endpoint: AUC(0-t) at 24 h (ng·h/mL)
Answers are plain numbers, in ng·h/mL.

(Q) Tell me the measured AUC(0-t) at 24 h of CC(C)=C1OC(C)=C(O[C@@H]2O[C@H](CO)[C@@H](O)[C@H](O)[C@H]2O)C1=O , please.
(A) 592

Please find the next molecule below.
(Q) Query: AUC(0-t) at 24 h; subject: CC(=O)OC[C@H]1O[C@@H](OC2=C(C)OC(=C(C)C)C2=O)[C@H](OC(C)=O)[C@@H](OC(C)=O)[C@@H]1OC(C)=O
(A) 32.3

* * *

# Test system: Mus musculus
# test-details: Antiinflammatory activity in DSS-induced male C57BL/6 mouse model of inflammatory bowel disease assessed as recovery in colon length at 40 mg/kg/day, po measured after 7 days relative to control
# Type: functional
# measurement-conditions: time 7 day
measured-endpoint: Activity (%)
Answers are plain numbers, in %.

These recorded examples may help you get a feel for the data.
(Q) Quick one: Activity for CC(=O)OC[C@H]1O[C@@H](OC2=C(C)OC(=C3CCOCC3)C2=O)[C@H](OC(C)=O)[C@@H](OC(C)=O)[C@@H]1OC(C)=O ?
(A) 30.5

(Q) // query Activity value for entry CC(=O)OC[C@H]1O[C@@H](OC2=C(C)OC(=C(C)C)C2=O)[C@H](OC(C)=O)[C@@H](OC(C)=O)[C@@H]1OC(C)=O
(A) 33.3

(Q) What measured Activity goes with CC(=O)OC[C@H]1O[C@@H](OC2=C(C)OC(=C3CCN(C(C)=O)CC3)C2=O)[C@H](OC(C)=O)[C@@H](OC(C)=O)[C@@H]1OC(C)=O ?
(A) 26.7

(Q) Consider the compound CC(C)=C1OC(C)=C(O[C@@H]2O[C@H](CO)[C@@H](O)[C@H](O)[C@H]2O)C1=O and give its measured Activity.
(A) 50.5

(Q) Field request: Activity | item: CC(=O)OC[C@H]1O[C@@H](OC2=C(C)OC(=C3CCCC3)C2=O)[C@H](OC(C)=O)[C@@H](OC(C)=O)[C@@H]1OC(C)=O
(A) 45.2

Give one value of Activity per listed compound.
1. CCOC(=O)OC[C@H]1O[C@@H](OC2=C(C)OC(=C(C)C)C2=O)[C@H](O)[C@@H](O)[C@@H]1O
2. CC(=O)OC[C@H]1O[C@@H](OC2=C(C)OC(=C3CCNCC3)C2=O)[C@H](OC(C)=O)[C@@H](OC(C)=O)[C@@H]1OC(C)=O
3. CC(=O)OC[C@H]1O[C@@H](OC2=C(C)OC(=C3CCCCC3)C2=O)[C@H](OC(C)=O)[C@@H](OC(C)=O)[C@@H]1OC(C)=O

(A)
1: 13.3; 2: 52.9; 3: 54.8
